Biological target: T1, human monocarboxylate transporter 1 (MCT1) (human, UniProt P53985 1-500)
T1 sequence: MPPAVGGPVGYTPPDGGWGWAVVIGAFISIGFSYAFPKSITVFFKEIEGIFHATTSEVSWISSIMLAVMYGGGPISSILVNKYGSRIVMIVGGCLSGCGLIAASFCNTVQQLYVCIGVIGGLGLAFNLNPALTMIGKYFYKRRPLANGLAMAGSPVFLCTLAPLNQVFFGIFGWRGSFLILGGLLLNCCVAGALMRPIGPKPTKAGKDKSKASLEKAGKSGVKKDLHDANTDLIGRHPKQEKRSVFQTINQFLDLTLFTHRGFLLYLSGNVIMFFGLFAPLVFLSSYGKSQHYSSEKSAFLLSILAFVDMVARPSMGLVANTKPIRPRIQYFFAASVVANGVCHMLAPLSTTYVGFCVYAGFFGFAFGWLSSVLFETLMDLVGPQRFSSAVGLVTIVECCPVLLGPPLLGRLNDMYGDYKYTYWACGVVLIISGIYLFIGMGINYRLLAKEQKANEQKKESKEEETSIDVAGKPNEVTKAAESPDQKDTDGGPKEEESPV
Experiment: cell-based or functional assay
PARAMETER MEASURED: IC50 of inhibition of MCT1 mediated transport (bromopyruvate assay, HEK293T cells)

(Q) // query IC50 of inhibition of MCT1 mediated transport (bromopyruvate assay, HEK293T cells) value for entry anti-human MCT1 antibody Ab16 (antibody, human IgG1, kappa, V domains shown, IgG1EN backbone) VH: QVQLVQSGAEVKKPGASVKVSCTRSGRSLTNYHLQWVRQAPGQGLEWMGFIRSSGNTEYNSEFKSRVTMTRDTSTSTVYMELSSLRSEDTAVYYCARNRWYHGTYYSPGYYVMDAWGQGTLVTVSS VL: EIVLTQSPGTLSLSPGERATLSCKGSQNIENYLAWYQQKPGQAPRLLIYNRHNLQTGIPDRFSGSGSGTDFTLTISRLEPEDFAVYYCYQYSDGYTFGGGTKVEIKR
(A) 31 nM

(Q) Using the record for anti-human MCT1 antibody Ab1 (antibody, human IgG1, kappa, V domains shown, human IgG1 effector null (IgG1EN) backbone; also called humanized Framework antibody Ab1) VH: QVQLVQSGAEVKKPGASVKVSCTVSGFSLTNYHLQWVRQAPGQGLEWMGFIRSSGNTEYNSEFKSRVTMTRDTSTSTVYMELSSLRSEDTAVYYCARNSWYHGTYYSPGYYVMDAWGQGTLVTVSS VL: EIVLTQSPGTLSLSPGERATLSCKGSQNINNYLAWYQQKPGQAPRLLIYNRHNLQTGIPDRFSGSGSGTDFTLTISRLEPEDFAVYYCYQYSDGYTFGGGTKVEIKR , report its IC50 of inhibition of MCT1 mediated transport (bromopyruvate assay, HEK293T cells).
(A) 164 nM

(Q) What measured IC50 of inhibition of MCT1 mediated transport (bromopyruvate assay, HEK293T cells) goes with anti-human MCT1 antibody Ab20 (antibody, human IgG1, kappa, V domains shown, IgG1EN backbone) VH: QVQLVQSGAEVKKPGASVKVSCTVSGRSLTNYHLQWVRQAPGQGLEWMGFIRSSGNTEYNSEFKSRVTMTRDTSTSTVYMELSSLRSEDTAVYYCARNLWYHGTYYSPGYYVMDAWGQGTLVTVSS VL: EIVLTQSPGTLSLSPGERATLSCKGSQNINNYLAWYQQKPGQAPRLLIYNRHNLQTGIPDRFSGSGSGTDFTLTISRLEPEDFAVYYCYQYSDGYTFGGGTKVEIKR ?
(A) 83 nM

(Q) Record request: IC50 of inhibition of MCT1 mediated transport (bromopyruvate assay, HEK293T cells) value, item anti-human MCT1 antibody Ab21 (antibody, human IgG1, kappa, V domains shown, IgG1EN backbone) VH: QVQLVQSGAEVKKPGASVKVSCTVSGRSLTNYHLQWVRQAPGQGLEWMGFIRSSGNTEYNSEFKSRVTMTRDTSTSTVYMELSSLRSEDTAVYYCARNRWYHGTYYSPGYYVMDPWGQGTLVTVSS VL: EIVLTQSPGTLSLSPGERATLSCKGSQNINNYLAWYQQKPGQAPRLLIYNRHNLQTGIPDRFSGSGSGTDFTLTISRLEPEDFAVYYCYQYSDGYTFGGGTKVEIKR
(A) 50 nM

(Q) IC50 of inhibition of MCT1 mediated transport (bromopyruvate assay, HEK293T cells) lookup needed for anti-human MCT1 antibody Ab15 (antibody, human IgG1, kappa, V domains shown, IgG1EN backbone) VH: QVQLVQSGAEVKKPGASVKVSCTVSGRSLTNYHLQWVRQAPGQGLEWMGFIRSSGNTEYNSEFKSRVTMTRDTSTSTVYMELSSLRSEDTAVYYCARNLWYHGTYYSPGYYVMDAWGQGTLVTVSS VL: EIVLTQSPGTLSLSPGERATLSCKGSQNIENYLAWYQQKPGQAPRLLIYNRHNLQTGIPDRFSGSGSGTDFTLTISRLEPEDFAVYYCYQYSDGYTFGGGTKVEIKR , thanks.
(A) 48 nM
